- SYSTEM_UNDER_TEST: T1, FGFR2 JM-KD, phosphorylation state pY4 (UniProt P21802-3 414-764, Y658F (worked out from the printed order of phosphorylation) | Y734F (worked …, phosphotyrosine at 657, 587, 467 and 589))
- T1 construct: numbers count on: FGFR2IIIb (C1 isoform, 822 residues); also called JM-KD^pY4; source: E. coli BL21(DE3), purified (Talon, Superdex 75)
- TEST_DETAILS: SPR; untagged CT immobilised on a CM4 chip by amine coupling (about 200 RU); JM-KD proteins of different phosphorylation level injected at 30 µl/min, then buffer wash; steady-state fitting
- MEASUREMENT_CONTEXT: both partners purified
MEASURE: Kd (µM)

| BINDER | MEASURE | UNIT_INFO | VAL |
| --- | --- | --- | --- |
| FGFR2 C-terminal tail of the C1 isoform, untagged (the last 58 residues of FGFR2) (domain or fragment, UniProt P21802-3 765-822, looked up, FGFR2 (IIIb, C1 isoform) C-terminal tail, the last 58 residues of FGFR2; numbers count on: FGFR2IIIb (C1 isoform, 822 residues); Unlabelled form: immobilised by amine coupling in SPR; added as 'CT' in the steady-state FRET; also called CT^C1; source: E. coli BL21(DE3), purified as GST fusion, GST removed with thrombin) TTNEEYLDLSQPLEQYSPSYPDTRSSCSSGDDSVFSPDPMPYEPCLPQYPHINGSVKT | Kd | µM | 7.87 |

These data points were gathered from paper PMC10349056.
